The reader will find reported pIC50 values listed item by item below.
- assay-protocol: Inhibitory activity against binding of horseradish peroxidase labelled Maclura pomifera, isolated from the seeds of osage orange tree to poly (acrylamide-co-allyl alpha-Galactopyranoside
pIC50: −log10 of the molar value.

[
  {
    "compound": "CCN(CC)C(=O)CNC(=O)[C@H](CCCCNC(=O)CN(CCC1OC(CO)C(O)C(O)C1O)C(=O)CC1OC(CO)C(O)C(O)C1O)NC(C)=O (stereo partly specified)",
    "pIC50": 2.37
  },
  {
    "compound": "CCN(CC)C(=O)CC1OC(CO)C(O)C(O)C1O (stereo unspecified)",
    "pIC50": 2.59
  },
  {
    "compound": "CC(=O)N[C@@H](CCCCN(CCC1OC(CO)C(O)C(O)C1O)CCC1OC(CO)C(O)C(O)C1O)C(=O)NCC(N)=O (stereo partly specified)",
    "pIC50": 2.83
  },
  {
    "compound": "CC(=O)N[C@@H](CCCCNC(=O)c1cc(NC(=O)CNC(=O)[C@H]2CCCN2C(=O)C[C@@H]2O[C@@H](CO)[C@H](O)[C@H](O)[C@@H]2O)cc(NC(=O)CNC(=O)[C@@H]2CCCN2C(=O)C[C@H]2O[C@@H](CO)[C@H](O)[C@H](O)[C@@H]2O)c1)C(=O)NCC(=O)NCc1ccccc1",
    "pIC50": 2.82
  },
  {
    "compound": "CC(=O)N[C@@H](CCCCNC(=O)c1cc(NC(=O)CNC(=O)[C@H](C)NC(=O)C[C@H]2O[C@H](CO)[C@H](O)[C@H](O)[C@H]2O)cc(NC(=O)CNC(=O)[C@@H](C)NC(=O)C[C@H]2O[C@H](CO)[C@H](O)[C@H](O)[C@H]2O)c1)C(=O)NCC(=O)NCc1ccccc1",
    "pIC50": 2.55
  },
  {
    "compound": "CC(=O)N[C@@H](CCCCNC(=O)CC1OC(CO)C(O)C(O)C1O)C(=O)NCC(N)=O (stereo partly specified)",
    "pIC50": 2.38
  }
]
